assay: Pooled population PK analysis of i.v. anidulafungin; type: in vivo, human; conditions: human, plasma, iv, Vss, Mean (SD), patients aged 1 month to < 2 years; n = 23; i.v. LD/MD 3.0/1.5 mg/kg q.d.; weight-corrected; final PK model; SD
Starred links: 1 amine or outer side, 2 acyl side, 3 side chain; linkers in the order of their positions; H or OH if unused. Positions of bridges follow the written chain, without caps; N, C: chain ends. Non-standard residues stand in square brackets, D forms with d. Residues, ends and D or L forms follow the SMILES beside them. *: point of attachment. pTerphenylCO(4''-OnC5H11) = CCCCCOc1ccc(-c2ccc(-c3ccc(C(=O)*)cc3)cc2)cc1; Orn(4R-OH,5R-OH) = O=C([C@H](C[C@@H](O)[C@@H](O)N[*:3])N[*:1])[*:2]; hTyr(3S-OH,4S-OH) = N[C@H](C(=O)O)[C@H](O)[C@@H](O)c1ccc(O)cc1; Pro(3S-OH,4S-Me) = C[C@H]1CN[C@H](C(=O)O)[C@H]1O; Hyp = O=C(O)[C@@H]1C[C@@H](O)CN1
reported-metric: Vd

- CCCCCOc1ccc(-c2ccc(-c3ccc(C(=O)N[C@H]4C[C@@H](O)[C@@H](O)NC(=O)[C@@H]5[C@@H](O)[C@@H](C)CN5C(=O)[C@H]([C@@H](C)O)NC(=O)[C@H]([C@H](O)[C@@H](O)c5ccc(O)cc5)NC(=O)[C@@H]5C[C@@H](O)CN5C(=O)[C@H]([C@@H](C)O)NC4=O)cc3)cc2)cc1 [anidulafungin] ({pTerphenylCO(4''-OnC5H11)}-[Orn(4R-OH,5R-OH)]T[Hyp][hTyr(3S-OH,4S-OH)]T[Pro(3S-OH,4S-Me)]; lactam 1-C): 0.77 L/kg
